Recorded IC50 for compounds tested on Tyrosine-protein phosphatase non-receptor type 2 (Homo sapiens, UniProt P17706), drawn from a number of studies.
Record the value in µM, omitting the unit from your answer.

Query: Requested read-out IC50, target or system Tyrosine-protein phosphatase non-receptor type 2 (Homo sapiens, UniProt P17706), entry COc1cc(CC(NC(=O)CCCC[C@]23CCC(C)(C)C[C@H]2C2=CC[C@@H]4[C@@]5(C)CC[C@H](O)C(C)(C)[C@@H]5CC[C@@]4(C)[C@]2(C)CC3)C(=O)O)cc(OC)c1 (some centres undefined)
Result: 0.85

Query: Please tell me: IC50 of O=C(O)c1cccc(/C=C/c2ccc(Oc3cnoc3-c3ccccc3Cl)cc2)c1 , system Tyrosine-protein phosphatase non-receptor type 2 (Homo sapiens, UniProt P17706)?
Result: 36.2

Query: Given the entry O=C1Nc2ccc(Br)cc2/C1=C\c1ccc(CN2C(=O)C(=O)c3ccccc32)o1 , what IC50 was observed with Tyrosine-protein phosphatase non-receptor type 2 (Homo sapiens, UniProt P17706)?
Result: 11.5

---

Molecular target: Tyrosine-protein phosphatase non-receptor type 2 (Homo sapiens, UniProt P17706)
Sequence (P17706 whole entry): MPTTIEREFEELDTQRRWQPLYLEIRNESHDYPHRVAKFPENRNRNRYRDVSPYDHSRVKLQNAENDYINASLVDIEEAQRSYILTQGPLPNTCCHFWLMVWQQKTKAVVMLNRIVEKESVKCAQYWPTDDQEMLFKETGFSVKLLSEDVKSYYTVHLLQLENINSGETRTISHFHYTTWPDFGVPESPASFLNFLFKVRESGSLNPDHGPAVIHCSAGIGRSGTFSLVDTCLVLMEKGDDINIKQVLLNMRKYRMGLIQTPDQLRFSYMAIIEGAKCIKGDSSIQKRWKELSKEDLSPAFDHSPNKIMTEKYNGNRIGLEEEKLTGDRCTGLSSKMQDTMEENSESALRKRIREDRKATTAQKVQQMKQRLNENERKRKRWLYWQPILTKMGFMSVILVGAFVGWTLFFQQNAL
Target or system Tyrosine-protein phosphatase non-receptor type 2 (Homo sapiens, UniProt P17706); metric IC50; compiled from varied reports.
Numeric answer only, unit µM assumed.

Query: Given CCO[C@H]1CC[C@]2(C)[C@H]3CC=C4[C@@H]5CC(C)(C)CC[C@]5(C(=O)O)CC[C@@]4(C)[C@]3(C)CC[C@H]2C1(C)C , state its recorded IC50.
Result: 26

Query: Give its IC50 value. Item: COc1cc(/C=C2\S/C(=N\c3ccccc3)N(Cc3ccc(C(=O)O)cc3)C2=O)ccc1OCc1ccccc1
Result: 5.1

Query: # get_value(readout='IC50', item= O=C(OCCCCC#Cc1ccc(C(=O)OC2CSSC2)cc1)c1cccc(F)c1 )
Result: 9.21

Query: Tell me the measured IC50 of O=C(OC1CSSC1)c1ccc(OCCCOC(=O)c2cc(Br)ccc2Br)cc1 , please.
Result: 27.6

Query: Fill in: IC50 of CC1(C)CC[C@]2(C(=O)O[C@@H]3O[C@H](CNC(=O)c4ccccc4C(=O)O)[C@@H](O)[C@H](O)[C@H]3O)CC[C@]3(C)C(=CC[C@@H]4[C@@]5(C)CC[C@H](O[C@@H]6O[C@H](CO)[C@@H](O[C@@H]7O[C@H](CO)[C@@H](O)[C@H](O)[C@H]7O)[C@H](O)[C@H]6O)C(C)(C)[C@@H]5CC[C@]43C)[C@@H]2C1 is ___
Result: 2.16

Query: Field request: IC50 | item: C[C@@]12CC[C@@H]3[C@@](CC[C@H]4[C@@]3(C)CCC[C@@]4(C)C(=O)OCc3ccccc3I)(CC1=O)C2
Result: 1.41
